Reported IC50 values for a set of molecules
target: BAF/3 cells expressing human CXCR2 (Homo sapiens, UniProt P25025); test: Chemotaxis assay 1, transfected cell line: inhibition of CXCL1 induced chemotaxis; conditions: inhibition of CXCL1 (3 nM) induced chemotaxis of BAF/3 cells expressing human CXCR2; 4 hours incubation
Endpoint label: IC50 (nM)

[[record]]
molecule = "O=C(c1cccc(Nc2c(Nc3cccc(F)c3Cl)c(=O)c2=O)c1O)N1CCN2CCCC2C1 (stereo not drawn)"
endpoint_label = "IC50"
readout_value = 8

[[record]]
molecule = "CC[C@@H](Nc1c(Nc2cccc(C(=O)N3CC4OCCN(C)C4C3)c2O)c(=O)c1=O)c1ccccc1 (stereo partly drawn)"
endpoint_label = "IC50"
readout_value = 3.3

[[record]]
molecule = "O=C(c1cccc(Nc2c(Nc3cccc(F)c3Cl)c(=O)c2=O)c1O)N1CCC2(CCNC2=O)CC1"
endpoint_label = "IC50"
readout_value = 6.2


* * *

molecular target: BAF/3 cells expressing human CXCR2 (Homo sapiens, UniProt P25025); experiment: Chemotaxis assay 1, transfected cell line: inhibition of CXCL1 induced chemotaxis; conditions: inhibition of CXCL1 (3 nM) induced chemotaxis of BAF/3 cells expressing human CXCR2; 4 hours incubation
Endpoint label: IC50 (nM)

[[record]]
compound = "CC[C@@H](Nc1c(Nc2cccc(C(=O)N3CCN4C(=O)CCC4C3)c2O)c(=O)c1=O)c1ccc(C(F)(F)F)o1 (stereo partly shown)"
units_of_measure = "nM"
readout_value = 859

[[record]]
compound = "O=C(Nc1cccc(C(=O)N2CCC3(CCNC3=O)CC2)c1O)Nc1cccc(F)c1Cl"
units_of_measure = "nM"
readout_value = 34

[[record]]
compound = "CC[C@@H](Nc1c(Nc2cccc(C(=O)N3CCN4C(CCS4(=O)=O)C3)c2O)c(=O)c1=O)c1ccccc1 (stereo partly shown)"
units_of_measure = "nM"
readout_value = 818

[[record]]
compound = "O=C(Nc1ccccc1Br)Nc1cccc(C(=O)N2CCN3C(=O)CCC3C2)c1O (stereo not shown)"
units_of_measure = "nM"
readout_value = 119


* * *

molecular target: BAF/3 cells expressing human CXCR2 (Homo sapiens, UniProt P25025); assay: Chemotaxis assay 1, transfected cell line: inhibition of CXCL1 induced chemotaxis; conditions: inhibition of CXCL1 (3 nM) induced chemotaxis of BAF/3 cells expressing human CXCR2; 4 hours incubation
Binning of IC50 into classes: lower bin (below 0.04 µM), middle bin (0.04 µM to below 0.6 µM), upper bin (0.6 µM or more)

[[record]]
molecule = "CC[C@@H](Nc1c(Nc2cccc(C(=O)N3CCN4C(=O)CCC4C3)c2O)c(=O)c1=O)c1ccccc1 (some centres unmarked)"
discrete_label = "middle bin"

[[record]]
molecule = "CC[C@@H](Nc1c(Nc2cccc(C(=O)N3CCC4(CCCC4)CC3)c2O)c(=O)c1=O)c1ccccc1"
discrete_label = "lower bin"

[[record]]
molecule = "CC[C@@H](Nc1c(Nc2cccc(C(=O)N3CCN4CCC[C@H]4C3)c2O)c(=O)c1=O)c1ccc(C)o1"
discrete_label = "lower bin"

[[record]]
molecule = "CC[C@@H](Nc1c(Nc2cccc(C(=O)N3CCN4CCC[C@H]4C3)c2O)c(=O)c1=O)c1ccccc1"
discrete_label = "lower bin"

[[record]]
molecule = "O=C(Nc1ccccc1Br)Nc1cccc(C(=O)N2CCN3CCCC3C2)c1O (centres unmarked)"
discrete_label = "middle bin"

[[record]]
molecule = "O=C(Nc1ccccc1Br)Nc1cccc(C(=O)N2CC(=O)N3CCCC3C2)c1O (centres unmarked)"
discrete_label = "middle bin"

[[record]]
molecule = "CC[C@@H](Nc1c(Nc2cccc(C(=O)N3CCN4CCNC(=O)C4C3)c2O)c(=O)c1=O)c1ccccc1 (some centres unmarked)"
discrete_label = "upper bin"

[[record]]
molecule = "O=C(Nc1cccc(C(=O)N2CCC3(CCNC3=O)CC2)c1O)Nc1cccc(Cl)c1Cl"
discrete_label = "upper bin"

[[record]]
molecule = "O=C(Nc1ccccc1Br)Nc1cccc(C(=O)N2CCN3CCC[C@H]3C2)c1O"
discrete_label = "middle bin"

[[record]]
molecule = "O=C(Nc1cccc(C(=O)N2CCN3CCCC3C2)c1O)Nc1cccc(Cl)c1Cl (centres unmarked)"
discrete_label = "upper bin"

[[record]]
molecule = "CC[C@@H](Nc1c(Nc2cccc(C(=O)N3CCS(=O)(=O)C4(CCNC4=O)C3)c2O)c(=O)c1=O)c1ccccc1 (some centres unmarked)"
discrete_label = "middle bin"

[[record]]
molecule = "O=C(c1cccc(Nc2c(Nc3cccc(F)c3Cl)c(=O)c2=O)c1O)N1CCN2CCOCC2C1 (centres unmarked)"
discrete_label = "middle bin"

[[record]]
molecule = "CCC(Nc1c(Nc2cccc(C(=O)N3CCN4CCCC4C3)c2O)c(=O)c1=O)c1ccccc1 (centres unmarked)"
discrete_label = "lower bin"

[[record]]
molecule = "CC[C@@H](Nc1c(Nc2cccc(C(=O)N3CCC4(CC3)COCC(=O)N4)c2O)c(=O)c1=O)c1ccccc1"
discrete_label = "upper bin"

[[record]]
molecule = "O=C(c1cccc(Nc2c(Nc3cccc(F)c3Cl)c(=O)c2=O)c1O)N1CC2(COC2)C1"
discrete_label = "middle bin"

[[record]]
molecule = "CC[C@@H](Nc1c(Nc2cccc(C(=O)N3CC(=O)N4CCCC4C3)c2O)c(=O)c1=O)c1ccccc1 (some centres unmarked)"
discrete_label = "upper bin"

[[record]]
molecule = "CC[C@@H](Nc1c(Nc2cccc(C(=O)N3CCO[C@@H]4CNC[C@H]43)c2O)c(=O)c1=O)c1ccccc1"
discrete_label = "middle bin"

[[record]]
molecule = "O=C(c1cccc(Nc2c(Nc3cccc(F)c3Cl)c(=O)c2=O)c1O)N1CC(=O)N2CCCC2C1 (centres unmarked)"
discrete_label = "upper bin"

[[record]]
molecule = "O=C(Nc1cccc(C(=O)N2CCN3CCOCC3C2)c1O)Nc1cccc(F)c1Cl (centres unmarked)"
discrete_label = "lower bin"


* * *

Reported IC50 values for a set of compounds
Biological target: BAF/3 cells expressing human CXCR2 (Homo sapiens, UniProt P25025)
Sequence (P25025 1-360): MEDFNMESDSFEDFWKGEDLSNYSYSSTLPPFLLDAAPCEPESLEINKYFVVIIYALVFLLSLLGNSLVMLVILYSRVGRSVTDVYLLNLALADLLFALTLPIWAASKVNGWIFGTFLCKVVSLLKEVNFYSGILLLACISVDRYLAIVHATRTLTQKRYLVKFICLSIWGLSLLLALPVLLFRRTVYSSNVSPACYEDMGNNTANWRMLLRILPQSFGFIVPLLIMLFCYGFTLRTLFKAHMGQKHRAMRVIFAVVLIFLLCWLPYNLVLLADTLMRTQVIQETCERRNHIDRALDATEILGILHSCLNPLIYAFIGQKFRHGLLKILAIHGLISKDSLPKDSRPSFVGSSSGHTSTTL
Assay: Chemotaxis assay 1, transfected cell line: inhibition of CXCL1 induced chemotaxis
Conditions: inhibition of CXCL1 (3 nM) induced chemotaxis of BAF/3 cells expressing human CXCR2; 4 hours incubation
Endpoint label: IC50 (nM)

[[record]]
compound = "O=C(Nc1cccc(C(=O)N2CCN3CCC[C@H]3C2)c1O)Nc1cccc(F)c1Cl"
experimental_system = "BAF/3 cells expressing human CXCR2 (Homo sapiens, UniProt P25025)"
readout_value = 41

[[record]]
compound = "CC[C@@H](Nc1c(Nc2cccc(C(=O)N3CCN4CCC[C@H]4C3)c2O)c(=O)c1=O)c1ccc(C(F)(F)F)o1"
experimental_system = "BAF/3 cells expressing human CXCR2 (Homo sapiens, UniProt P25025)"
readout_value = 40

[[record]]
compound = "O=C(Nc1ccccc1Br)Nc1cccc(C(=O)N2CCC3(CCNC3=O)CC2)c1O"
experimental_system = "BAF/3 cells expressing human CXCR2 (Homo sapiens, UniProt P25025)"
readout_value = 597

[[record]]
compound = "O=C1NCCC2C1CCN2C(=O)c1cccc(Nc2c(Nc3cccc(F)c3Cl)c(=O)c2=O)c1O (stereo not shown)"
experimental_system = "BAF/3 cells expressing human CXCR2 (Homo sapiens, UniProt P25025)"
readout_value = 617

